src = ChEMBL document CHEMBL3885881

TOTAL BILIRUBIN overview
organism: Rattus norvegicus; test: DrugMatrix - Regimen: Daily Repeat; type: toxicity, organism-based, Sprague-Dawley; design: regimen Daily Repeat, gender Male, age 6-8 weeks; conditions: in vivo, po, 0 mg/kg, 120 h, tissue Plasma, route oral GAVAGE, dose level Control, time 5 day, […]

>  <molecule>
CCOC(=O)C1=C(C)NC(C)=C(C(=O)OC)C1c1cccc([N+](=O)[O-])c1 (stereo not given)

>  <uom>
mg/dL

>  <TOTAL BILIRUBIN>
0.17

$$$$
>  <molecule>
O=NN(CCCl)C(=O)NCCCl

>  <uom>
mg/dL

>  <TOTAL BILIRUBIN>
0.2

$$$$
>  <molecule>
CC(=O)Nc1ccc(O)cc1

>  <uom>
mg/dL

>  <TOTAL BILIRUBIN>
0.2

$$$$
>  <molecule>
CC(=O)Nc1cccc(O)c1

>  <uom>
mg/dL

>  <TOTAL BILIRUBIN>
0.22

$$$$
>  <molecule>
COCCOC(=O)C1=C(C)NC(C)=C(C(=O)OC(C)C)C1c1cccc([N+](=O)[O-])c1 (stereo not given)

>  <uom>
mg/dL

>  <TOTAL BILIRUBIN>
0.17

$$$$

---

species: Rattus norvegicus; experiment: DrugMatrix - Regimen: Daily Repeat; assay type: toxicity, organism-based, Sprague-Dawley; parameters: regimen Daily Repeat, gender Male, age 6-8 weeks; settings: in vivo, iv, 0 mg/kg, 72 h, tissue Plasma, dose level Control, time 3 day, vehicle 100 % SALINE
Catalogue of CHOLESTEROL readings, one per entry.

>  <compound>
CCC1=C[C@@H]2CN(C1)Cc1c([nH]c3ccccc13)[C@@](C(=O)OC)(c1cc3c(cc1OC)N(C)[C@H]1[C@@](O)(C(=O)OC)[C@H](OC(C)=O)[C@]4(CC)C=CCN5CC[C@]31[C@@H]54)C2 [VINORELBINE]

>  <CHOLESTEROL / mg/dL>
66.67

$$$$
>  <compound>
CCc1c2c(nc3ccc(OC(=O)N4CCC(N5CCCCC5)CC4)cc13)-c1cc3c(c(=O)n1C2)COC(=O)[C@]3(O)CC [IRINOTECAN]

>  <CHOLESTEROL / mg/dL>
70.33

$$$$
>  <compound>
CC(=O)N[C@@H]1[C@H](Oc2c3cc4cc2Oc2ccc(cc2Cl)[C@@H](O[C@@H]2O[C@@H](CO)[C@@H](O)[C@H](O)[C@@H]2NC(C)=O)[C@@H]2NC(=O)[C@H](NC(=O)[C@@H]4NC(=O)[C@H]4NC(=O)[C@@H](Cc5ccc(c(Cl)c5)O3)NC(=O)[C@H](N)c3ccc(O)c(c3)Oc3cc(O)cc4c3)c3ccc(O)c(c3)-c3c(O[C@H]4O[C@H](CO)[C@@H](O)[C@@H](O)[C@@H]4O)cc(O)cc3[C@@H](C(=O)O)NC2=O)O[C@@H](CO)[C@@H](O)[C@@H]1O

>  <CHOLESTEROL / mg/dL>
67.17

$$$$
>  <compound>
COc1cccc2c1C(=O)c1c(O)c3c(c(O)c1C2=O)C[C@@](O)(C(=O)CO)C[C@@H]3O[C@H]1C[C@H](N)[C@@H](O)[C@H](C)O1 [EPIRUBICIN]

>  <CHOLESTEROL / mg/dL>
70.33

$$$$
>  <compound>
COc1cccc2c1C(=O)c1c(O)c3c(c(O)c1C2=O)C[C@@](O)(C(=O)CO)C[C@@H]3O[C@H]1C[C@H](N)[C@H](O)[C@H](C)O1 [DOXORUBICIN]

>  <CHOLESTEROL / mg/dL>
71.17

$$$$
>  <compound>
CC[C@]1(O)C[C@@H]2CN(CCc3c([nH]c4ccccc34)[C@@](C(=O)OC)(c3cc4c(cc3OC)N(C)[C@H]3[C@@](O)(C(=O)OC)[C@H](OC(C)=O)[C@]5(CC)C=CCN6CC[C@]43[C@@H]65)C2)C1 [VINBLASTINE]

>  <CHOLESTEROL / mg/dL>
63.67

$$$$

---

Entries and their measured EOSINOPHIL follow.
species on record: Rattus norvegicus; experiment: DrugMatrix - Regimen: Daily Repeat; format: toxicity, organism-based, Sprague-Dawley; set-up: regimen Daily Repeat, gender Male, age 6-8 weeks; conditions: in vivo, po, 0 mg/kg, 120 h, tissue Blood, route oral GAVAGE, dose level Control, time 5 day, vehicle 100 % WATER

>  <molecule>
COC(=O)C1=C(C)NC(C)=C(C(=O)OCC(C)C)C1c1ccccc1[N+](=O)[O-] (centres undefined)

>  <EOSINOPHIL>
0%

$$$$
>  <molecule>
C[C@@H]1C[C@@H]([C@H](O)CC2CC(=O)NC(=O)C2)C(=O)[C@@H](C)C1 [CYCLOHEXIMIDE]

>  <EOSINOPHIL>
0%

$$$$
>  <molecule>
CC(C)C[C@H](NC(=O)[C@@H](O)[C@H](N)Cc1ccccc1)C(=O)O

>  <EOSINOPHIL>
0%

$$$$
>  <molecule>
Nc1ccn([C@@H]2CS[C@H](CO)O2)c(=O)n1

>  <EOSINOPHIL>
0.17%

$$$$
>  <molecule>
CC(C)(C)c1ccc(C(=O)CCCN2CCC(OC(c3ccccc3)c3ccccc3)CC2)cc1

>  <EOSINOPHIL>
0.67%

$$$$
>  <molecule>
ClC(Cl)Cl [CHLOROFORM]

>  <EOSINOPHIL>
0.33%

$$$$
>  <molecule>
CC(C)NCC(O)COc1cccc2ccccc12 (centres undefined)

>  <EOSINOPHIL>
0.17%

$$$$
>  <molecule>
Cc1ncc([N+](=O)[O-])n1CCO

>  <EOSINOPHIL>
0.33%

$$$$
>  <molecule>
C[N+](C)(C)CCO.[Cl-] [CHOLINE CHLORIDE]

>  <EOSINOPHIL>
0.5%

$$$$

---

species: Rattus norvegicus; assay: DrugMatrix - Regimen: Daily Repeat; format: toxicity, organism-based, Sprague-Dawley; set-up: regimen Daily Repeat, gender Male, age 6-8 weeks; details: in vivo, iv, 0 mg/kg, 72 h, tissue Blood, dose level Control, time 3 day, vehicle 100 % SALINE

>  <entrySmiles>
CC(=O)N[C@@H]1[C@H](Oc2c3cc4cc2Oc2ccc(cc2Cl)[C@@H](O[C@@H]2O[C@@H](CO)[C@@H](O)[C@H](O)[C@@H]2NC(C)=O)[C@@H]2NC(=O)[C@H](NC(=O)[C@@H]4NC(=O)[C@H]4NC(=O)[C@@H](Cc5ccc(c(Cl)c5)O3)NC(=O)[C@H](N)c3ccc(O)c(c3)Oc3cc(O)cc4c3)c3ccc(O)c(c3)-c3c(O[C@H]4O[C@H](CO)[C@@H](O)[C@@H](O)[C@@H]4O)cc(O)cc3[C@@H](C(=O)O)NC2=O)O[C@@H](CO)[C@@H](O)[C@@H]1O

>  <ABSOLUTE BASOPHIL, CELLS/uL>
0

$$$$

---

species on record: Rattus norvegicus; experiment: DrugMatrix - Regimen: Daily Repeat; assay type: toxicity, organism-based, Sprague-Dawley; design: regimen Daily Repeat, gender Male, age 6-8 weeks; settings: in vivo, po, 0 mg/kg, 120 h, tissue Blood, route oral GAVAGE, dose level Control, time 5 day, vehicle 100 % WATER

>  <compound>
CC(C)C[C@H](NC(=O)[C@@H](O)[C@H](N)Cc1ccccc1)C(=O)O

>  <ABSOLUTE EOSINOPHIL / CELLS/uL>
0

$$$$
>  <compound>
Cc1ncc([N+](=O)[O-])n1CCO

>  <ABSOLUTE EOSINOPHIL / CELLS/uL>
26.67

$$$$
>  <compound>
CC(C)(C)c1ccc(C(=O)CCCN2CCC(OC(c3ccccc3)c3ccccc3)CC2)cc1

>  <ABSOLUTE EOSINOPHIL / CELLS/uL>
125

$$$$
>  <compound>
C[N+](C)(C)CCO.[Cl-] [CHOLINE CHLORIDE]

>  <ABSOLUTE EOSINOPHIL / CELLS/uL>
80

$$$$
>  <compound>
C[C@@H]1C[C@@H]([C@H](O)CC2CC(=O)NC(=O)C2)C(=O)[C@@H](C)C1 [CYCLOHEXIMIDE]

>  <ABSOLUTE EOSINOPHIL / CELLS/uL>
0

$$$$

---

The entries below are paired with their reported MEAN CORPUSCULAR VOLUME.
species on record: Rattus norvegicus; test: DrugMatrix - Regimen: Daily Repeat; assay type: toxicity, organism-based, Sprague-Dawley; set-up: regimen Daily Repeat, gender Male, age 6-8 weeks; conditions: in vivo, po, 0 mg/kg, 72 h, tissue Blood, route oral GAVAGE, dose level Control, time 3 day, vehicle 100 % WATER

>  <compound>
CC(C)C[C@H](NC(=O)[C@@H](O)[C@H](N)Cc1ccccc1)C(=O)O

>  <MEAN CORPUSCULAR VOLUME / fL>
62.05

$$$$
>  <compound>
COc1cc2ncnc(Nc3ccc(F)c(Cl)c3)c2cc1OCCCN1CCOCC1

>  <MEAN CORPUSCULAR VOLUME / fL>
70.05

$$$$
>  <compound>
CC(C)(C)c1ccc(C(=O)CCCN2CCC(OC(c3ccccc3)c3ccccc3)CC2)cc1

>  <MEAN CORPUSCULAR VOLUME / fL>
63

$$$$
>  <compound>
C[N+](C)(C)CCO.[Cl-] [CHOLINE CHLORIDE]

>  <MEAN CORPUSCULAR VOLUME / fL>
62.95

$$$$
>  <compound>
CC(C)NCC(O)COc1cccc2ccccc12 (stereo not given)

>  <MEAN CORPUSCULAR VOLUME / fL>
64.8

$$$$
